Taken from patent US20030082641A1.

Quick list: Ki per entry.
Molecular target: T1, rat GALR1 receptor (rat, UniProt Q62805 1-346)
T1 construct: Expressed in COS-7 (transient), CHO, LM(tk-) cells or oocytes; also called rGALR1; rGalR1
T1 sequence: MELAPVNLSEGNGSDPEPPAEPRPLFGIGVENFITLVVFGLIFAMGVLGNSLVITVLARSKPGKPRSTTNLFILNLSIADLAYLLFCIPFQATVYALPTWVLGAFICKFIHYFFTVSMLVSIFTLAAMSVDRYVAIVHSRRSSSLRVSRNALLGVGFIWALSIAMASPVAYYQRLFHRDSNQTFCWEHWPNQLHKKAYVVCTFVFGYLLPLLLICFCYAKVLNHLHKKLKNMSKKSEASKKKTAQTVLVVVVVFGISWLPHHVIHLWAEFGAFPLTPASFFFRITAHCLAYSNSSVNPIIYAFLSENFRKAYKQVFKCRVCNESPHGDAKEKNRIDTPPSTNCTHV
Test: displacement of porcine 125I-galanin; rat GALR1 in CHO

- BINDER: "SPVKEKRGWTLNSAGYLLGPHAIDNHRSFHDKYGLA (peptide, UniProt P07480 26-61, looked up, range -7 to +29; also called galanin -7 to +29; Gal -7-29) [(-7) to (+29) galanin, porcine]"
  Ki (nM): 36.3
- BINDER: "LGSPVKEKRGWTLNSAGYLLGPHAIDNHRSFHDKYGLA (peptide, UniProt P07480 24-61, looked up, range -9 to +29; also called galanin -9 to +29) [(-) 9 to (+) 29 galanin, porcine]"
  Ki (nM): 51.3
